target: FGFR1 (Homo sapiens (Human), UniProt P11362)
Sequence (P11362 22-822): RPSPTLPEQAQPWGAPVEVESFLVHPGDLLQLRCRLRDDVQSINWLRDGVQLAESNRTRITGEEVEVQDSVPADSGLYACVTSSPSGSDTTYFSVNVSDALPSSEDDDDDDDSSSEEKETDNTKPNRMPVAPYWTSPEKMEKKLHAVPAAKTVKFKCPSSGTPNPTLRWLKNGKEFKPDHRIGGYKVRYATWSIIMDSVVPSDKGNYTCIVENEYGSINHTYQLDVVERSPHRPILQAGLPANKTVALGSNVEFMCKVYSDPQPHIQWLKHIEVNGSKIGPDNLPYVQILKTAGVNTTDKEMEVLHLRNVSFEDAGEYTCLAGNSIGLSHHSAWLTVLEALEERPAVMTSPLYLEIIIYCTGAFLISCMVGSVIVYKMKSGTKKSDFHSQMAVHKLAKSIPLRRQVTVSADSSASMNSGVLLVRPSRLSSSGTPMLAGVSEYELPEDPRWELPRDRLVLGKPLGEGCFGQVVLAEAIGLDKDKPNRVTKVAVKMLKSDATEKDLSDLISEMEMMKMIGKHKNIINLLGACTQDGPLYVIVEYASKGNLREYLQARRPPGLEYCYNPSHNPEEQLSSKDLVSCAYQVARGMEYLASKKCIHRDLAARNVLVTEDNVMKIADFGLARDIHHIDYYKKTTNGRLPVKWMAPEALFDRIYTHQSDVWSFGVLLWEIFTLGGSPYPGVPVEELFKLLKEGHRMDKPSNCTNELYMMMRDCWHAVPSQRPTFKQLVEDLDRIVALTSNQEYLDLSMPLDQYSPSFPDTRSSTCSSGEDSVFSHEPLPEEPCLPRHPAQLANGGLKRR
pIC50: −log10 of the molar value.
Parameter pIC50: see the listing below.

# Molecule, pIC50
measured = [
    ("CNC(=O)c1cc(-c2cnn3cc(-c4ccc(C(C)(C)O)nc4)c(O[C@H]4CCOC4)nc23)c(F)c(C(F)F)c1", "6.70 to 7.52"),
    ("CCn1ccc(-c2cn3ncc(-c4cc(C(=O)NC)cc(C)c4F)c3nc2N[C@H]2CCOC2)n1", "7.52 to 8.00"),
    ("CNC(=O)c1cc(F)c(F)c(-c2cnn3cc(-c4ccc(C)nc4)c(O[C@H]4CCOC4)nc23)c1", "6.70 to 7.52"),
    ("CNC(=O)c1cncc(-c2cnn3cc(-c4ccc(N5CCN(C)CC5)nc4)c(O[C@H]4CCOC4)nc23)c1", "6.70 to 7.52"),
]

---

FGFR1 (Homo sapiens (Human)) measurements of IC50, listed per entry.
Experimental Endpoint: IC50

# Compound, Target Entity, Experimental Endpoint, Value Observed
measured = [
    ("CNC(=O)c1cc(C)c(F)c(-c2cnn3cc(-c4ccnnc4)c(N[C@H]4CCOC4)nc23)c1 [Example 44]", "FGFR1 (Homo sapiens (Human))", "IC50", "≥ 200 nM"),
    ("CCn1cc(-c2cn3ncc(-c4cc(C(=O)NC)cc(C(F)F)c4F)c3nc2N[C@H]2CCOC2)cn1 [Example 48]", "FGFR1 (Homo sapiens (Human))", "IC50", "10 to 30 nM"),
    ("CNC(=O)c1cc(F)c(F)c(-c2cnn3cc(-c4cnc(C)o4)c(N[C@H]4CCOC4)nc23)c1 [Example 58]", "FGFR1 (Homo sapiens (Human))", "IC50", "< 10 nM"),
    ("CNC(=O)c1cc(F)c(F)c(-c2cnn3cc(-c4ccn(C(C)C)c(=O)c4)c(N[C@H]4CCOC4)nc23)c1 [Example 56]", "FGFR1 (Homo sapiens (Human))", "IC50", "10 to 30 nM"),
    ("[2H]C([2H])([2H])NC(=O)c1cc(C)c(F)c(-c2cnn3cc(-c4cnn([C@@H]5CCN(C)C[C@H]5F)c4)c(O[C@H]4CCOC4)nc23)c1 [Example 64]", "FGFR1 (Homo sapiens (Human))", "IC50", "< 10 nM"),
    ("CNC(=O)c1cc(C#N)cc(-c2cnn3cc(-c4cncc(C)c4)c(O[C@H]4CCOC4)nc23)c1 [Example 29]", "FGFR1 (Homo sapiens (Human))", "IC50", "≥ 200 nM"),
    ("CNC(=O)c1cc(F)c(F)c(-c2cnn3cc(-c4cnn(CC5CCOCC5)c4)c(N[C@H]4CCOC4)nc23)c1 [Example 54]", "FGFR1 (Homo sapiens (Human))", "IC50", "< 10 nM"),
]

---

molecular target: UniProtKB P21802; assay: FGFR Enzymatic Assay (FRET peptide phosphorylation), FGFR2; assay type: biochemical; conditions: pre-incubated for 4 hours
Sequence (P21802 22-821): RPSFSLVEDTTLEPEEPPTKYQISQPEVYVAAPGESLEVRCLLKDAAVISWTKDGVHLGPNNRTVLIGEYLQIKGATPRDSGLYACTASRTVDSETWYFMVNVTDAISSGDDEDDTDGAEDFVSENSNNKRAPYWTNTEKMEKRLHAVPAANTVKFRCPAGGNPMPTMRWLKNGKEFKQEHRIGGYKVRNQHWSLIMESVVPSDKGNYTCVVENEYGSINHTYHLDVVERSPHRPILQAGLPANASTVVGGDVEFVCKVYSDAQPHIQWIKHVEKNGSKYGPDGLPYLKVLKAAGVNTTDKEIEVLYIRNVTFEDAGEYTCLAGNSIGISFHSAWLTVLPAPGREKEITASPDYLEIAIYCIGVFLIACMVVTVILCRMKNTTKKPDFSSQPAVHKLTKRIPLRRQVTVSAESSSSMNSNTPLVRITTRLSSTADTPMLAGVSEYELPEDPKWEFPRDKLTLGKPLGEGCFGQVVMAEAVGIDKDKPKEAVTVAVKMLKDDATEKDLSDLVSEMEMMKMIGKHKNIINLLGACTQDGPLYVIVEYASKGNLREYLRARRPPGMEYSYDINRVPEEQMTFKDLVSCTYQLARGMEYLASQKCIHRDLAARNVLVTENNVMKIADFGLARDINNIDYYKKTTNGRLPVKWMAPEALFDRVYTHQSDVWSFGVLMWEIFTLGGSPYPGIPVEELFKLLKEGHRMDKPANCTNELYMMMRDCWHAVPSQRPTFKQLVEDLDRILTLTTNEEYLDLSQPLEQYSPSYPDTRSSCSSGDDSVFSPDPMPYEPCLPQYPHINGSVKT
pIC50: −log10 of the molar value.

# Molecule, Target Entity, pIC50
records = [
    ("CNC(=O)c1cc(C)c(F)c(-c2cnn3cc(-c4cnn(C)c4)c(N[C@H]4CCOC4)nc23)c1", "UniProtKB P21802", "> 8.00"),
    ("CNC(=O)c1cc(-c2cnn3cc(-c4cnn(C)c4)c(N[C@H]4CCOC4)nc23)c(F)c(C(F)F)c1", "UniProtKB P21802", "> 8.00"),
    ("CNC(=O)c1cc(-c2cnn3cc(-c4cnc(NC)c(C)c4)c(O[C@H]4CCOC4)nc23)c(F)c(C(F)F)c1", "UniProtKB P21802", "7.52 to 8.00"),
    ("CNC(=O)c1cc(-c2cnn3cc(-c4cnn(C5CCC5)c4)c(O[C@H]4CCOC4)nc23)cc(S(C)(=O)=O)c1", "UniProtKB P21802", "6.70 to 7.52"),
]

---

target: FGFR1 (Homo sapiens (Human), UniProt P11362)
pIC50: −log10 of the molar value.
Parameter pIC50: see the listing below.

# Molecule, pIC50
rows = [
    ("CNC(=O)c1cc(F)c(F)c(-c2cnn3cc(-c4cnn(CCN5CCOCC5)c4)c(O[C@H]4CCOC4)nc23)c1 [Example 14]", "> 8.00"),
    ("CNC(=O)c1cc(C)c(F)c(-c2cnn3cc(-c4cnn(C5CCS(=O)(=O)C5)c4)c(N[C@H]4CCOC4)nc23)c1 (stereo partly drawn) [Example 38]", "6.70 to 7.52"),
    ("CNC(=O)c1cncc(-c2cnn3cc(-c4cnn(C5CC5)c4)c(O[C@H]4CCOC4)nc23)c1 [Example 21]", "6.70 to 7.52"),
    ("CNC(=O)c1cncc(-c2cnn3cc(-c4ccc(N5CCN(C)CC5)cc4)c(O[C@H]4CCOC4)nc23)c1 [Example 18]", "6.70 to 7.52"),
    ("CNC(=O)c1cc(C)c(F)c(-c2cnn3cc(-c4cnn(CC(=O)N(C)C)c4)c(N[C@H]4CCOC4)nc23)c1 [Example 39]", "7.52 to 8.00"),
    ("CCNC(=O)c1cncc(-c2cnn3cc(-c4ccn(C)n4)c(N[C@H]4CCOC4)nc23)c1 [Example 61]", "6.70 to 7.52"),
    ("CCS(=O)(=O)c1cc(F)c(F)c(-c2cnn3cc(-c4cnn(C)c4)c(N[C@H]4CCOC4)nc23)c1 [Example 45]", "7.52 to 8.00"),
    ("CNC(=O)c1cc(C)c(F)c(-c2cnn3cc(-c4cnn(C)c4)c(OC4CCOC4)nc23)c1 (racemic) [Example 4]", "6.70 to 7.52"),
    ("CC(C)NC(=O)c1cncc(-c2cnn3cc(-c4ccn(C)n4)c(N[C@H]4CCOC4)nc23)c1 [Example 62]", "6.70 to 7.52"),
    ("CNC(=O)c1cc(-c2cnn3cc(-c4cccnc4)c(O[C@H]4CCOC4)nc23)c(F)c(C(F)F)c1 [Example 23]", "6.70 to 7.52"),
    ("CNC(=O)c1cncc(-c2cnn3cc(-c4cnn(C)n4)c(N[C@H]4CCOC4)nc23)c1 [Example 60]", "6.70 to 7.52"),
    ("CNC(=O)c1cc(-c2cnn3cc(-c4cnn(C5CCOC5)c4)c(N[C@H]4CCOC4)nc23)c(F)c(C(F)F)c1 (stereo partly drawn) [Example 49]", "7.52 to 8.00"),
    ("CNC(=O)c1cc(C)c(F)c(-c2cnn3cc(-c4cnn(CC(C)(C)O)c4)c(N[C@H]4CCOC4)nc23)c1 [Example 40]", "7.52 to 8.00"),
    ("CNC(=O)c1cc(F)c(F)c(-c2cnn3cc(-c4ccc(C(C)(C)O)nc4)c(N[C@H]4CCOC4)nc23)c1 [Example 57]", "6.70 to 7.52"),
    ("CNC(=O)c1cc(-c2cnn3cc(-c4cnn(C5CCC5)c4)c(O[C@H]4CCOC4)nc23)cc(S(C)(=O)=O)c1 [Example 32]", "≤ 6.70"),
]
